# target: human P2X7 (Homo sapiens (Human), UniProt Q99572)
# Sequence (Q99572 whole entry): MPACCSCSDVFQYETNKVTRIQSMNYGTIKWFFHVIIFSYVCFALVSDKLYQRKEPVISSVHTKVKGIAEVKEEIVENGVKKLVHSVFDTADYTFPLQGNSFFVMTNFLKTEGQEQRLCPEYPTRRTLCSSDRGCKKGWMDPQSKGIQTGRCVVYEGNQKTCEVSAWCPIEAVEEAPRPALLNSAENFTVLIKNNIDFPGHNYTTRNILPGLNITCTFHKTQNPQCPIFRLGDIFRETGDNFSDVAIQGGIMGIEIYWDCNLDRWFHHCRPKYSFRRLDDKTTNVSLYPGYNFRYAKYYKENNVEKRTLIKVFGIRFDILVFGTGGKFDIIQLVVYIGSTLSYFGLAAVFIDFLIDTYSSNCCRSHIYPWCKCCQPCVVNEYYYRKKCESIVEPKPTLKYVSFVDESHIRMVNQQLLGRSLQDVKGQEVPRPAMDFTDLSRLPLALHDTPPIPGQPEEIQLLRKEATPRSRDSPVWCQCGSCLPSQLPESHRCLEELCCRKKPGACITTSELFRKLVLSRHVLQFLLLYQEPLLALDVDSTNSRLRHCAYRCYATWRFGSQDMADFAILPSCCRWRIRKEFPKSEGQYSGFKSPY
# assay comment: Human P2X7 functional assay (Ca2+ influx, Fluo-4, FDSS)
# Format: cell-based
# experimental parameters: antagonistic activity with respect to the human P2X7 receptor; BzATP final concentration 80 microM
# Procedure: The ability of the 5,6,7,8-tetrahydroquinoline and 6,7-dihydro-5H-cyclopenta[b]pyridine derivatives of the formula (I) to inhibit the P2X7 channel was measured by Ca^2+ influx assay and electrophysiology assay described below. Human P2X7 Functional Assay The functional activity of compounds was determined by measuring changes in intracellular calcium concentration using a Ca^2+-sensitive fluorescent dye, Fluo-4 (Molecular Probes). […]
pIC50: −log10 of the molar value.
For each of the molecules below, state its pIC50.

Provide reported pIC50 for each item, in the same order as listed.
1. O=C(NC1CC1c1ccc(Cl)cc1Cl)[C@]1(F)CC[C@@](O)(CO)c2ncccc21 (stereo partly shown)
2. O=C(NCc1c(Cl)cc(C(F)(F)F)cc1Cl)[C@]1(F)CC[C@@H](O)c2ncccc21
3. O=C(NCc1ccc(Cl)c(F)c1F)[C@]1(F)CC[C@H](O)c2ncccc21
4. O=C(NCc1c(F)cc(Cl)cc1Cl)[C@]1(F)CC[C@@](O)(CO)c2ncccc21
5. O=C(NCc1ccc(Cl)cc1Cl)[C@@]1(F)CC[C@](O)(CO)c2ncccc21
6. O=C(NCc1cccc(F)c1Cl)[C@]1(F)CC[C@H](O)c2ncccc21
7. Cc1ncsc1C(CNC(=O)[C@]1(F)CC[C@H](O)c2ncccc21)N1CCC(F)(F)CC1 (stereo partly shown)

["7.00 to 7.30", "> 7.30", "> 7.30", "> 7.30", "6.52 to 7.00", "> 7.30", "5.52 to 6.00"]

Consider the following items and state reported pIC50 for each.
1. O=C(NCc1ccc(Cl)cc1Cl)[C@]1(F)CC[C@H](O)c2c1ccc[n+]2[O-]
2. O=C(NCc1cccc(C(F)(F)F)c1Cl)C1CCC(O)c2ncccc21 (stereo not shown)
3. Cc1cc(Cl)cc(Cl)c1CNC(=O)[C@@H]1C[C@@H](O)c2ncccc21
4. O=C(NCc1c(Cl)ccc(Cl)c1Cl)[C@]1(F)CC[C@@H](O)c2ncccc21
5. O=C(NC1CCOc2cc(Cl)cc(Cl)c21)[C@]1(F)CC[C@H](O)c2ncccc21 (stereo partly shown)

["> 7.30", "> 7.30", "> 7.30", "6.52 to 7.00", "> 7.30"]

For every listed record, write down its pIC50.
1. Cc1cc(Cl)cc(Cl)c1CNC(=O)[C@H]1CC[C@@H](O)c2ncccc21
2. O=C(NCc1ccc(Cl)cc1F)[C@]1(F)CC[C@H](OCCO)c2ncccc21
3. O=C(NCc1ccc(Cl)c(F)c1)[C@]1(F)CC[C@H](O)c2ncccc21
4. O=C(NCc1ccc(Cl)cc1Cl)[C@@H]1CC[C@H](O)c2ncccc21
5. O=C(NCc1c(Cl)cc(Cl)cc1C(F)F)[C@]1(F)CC[C@@H](O)c2ncccc21

1. > 7.30
2. > 7.30
3. 6.52 to 7.00
4. > 7.30
5. > 7.30

Would you mind giving pIC50 for every molecule in the list below?
1. COc1cccc(Cl)c1CNC(=O)[C@]1(F)CC[C@H](O)c2ncccc21
2. O=C(NCc1ccc(F)c(Cl)c1)[C@]1(F)CC[C@H](O)c2ncccc21
3. C[C@]1(O)CC[C@@](F)(C(=O)NCC2(N3CCOCC3)CCCCC2)c2cccnc21
4. Cc1cccc(Cl)c1CNC(=O)[C@@]1(F)CC[C@@H](O)c2ncccc21
5. O=C(NCc1ccc(F)cc1Cl)[C@]1(F)CC[C@@H](O)c2ncccc21
6. O=C(NCc1c(F)cc(Cl)cc1Cl)[C@@]1(F)CC[C@H](O)c2ncccc21
7. CS(=O)(=O)C[C@]1(O)CC[C@@](F)(C(=O)NCc2ccc(Cl)cc2Cl)c2cccnc21
8. O=C(NCc1cccc(C(F)(F)F)c1Cl)[C@@]1(F)CC[C@H](O)c2ncccc21

> 7.30
> 7.30
> 7.30
6.52 to 7.00
6.52 to 7.00
6.00 to 6.52
> 7.30
6.52 to 7.00

Could you report pIC50 for every entry in the following list?
1. O=C(NCc1ccc(F)cc1Cl)[C@]1(F)CC[C@@](O)(CF)c2ncccc21
2. O=C(NCc1ccc(Br)cc1F)[C@@H]1CC[C@H](O)c2ncccc21
3. O=C(NCc1ccc(F)cc1C(F)(F)F)[C@H]1CC[C@H](O)c2ncccc21
4. O=C(O)CC1CCC(C(=O)NCc2cccc(C(F)(F)F)c2Cl)c2cccnc21 (stereo not shown)
5. O=C1CCC(C(=O)NCc2cccc(C(F)(F)F)c2Cl)c2cccnc21 (stereo not shown)
6. O=C(NCc1ccc(Cl)cc1Cl)[C@@]1(F)CC[C@H](O)c2ncccc21

1. > 7.30
2. 7.00 to 7.30
3. 5.52 to 6.00
4. 7.00 to 7.30
5. > 7.30
6. 6.00 to 6.52

Could I get pIC50 for every one of these entries?
1. N#CC[C@]1(O)CC[C@@](F)(C(=O)NCc2ccc(Cl)cc2Cl)c2cccnc21
2. O=C(NCc1ccc(F)c(F)c1F)[C@@H]1CC[C@@H](O)c2ncccc21
3. CC(NC(=O)[C@]1(F)CC[C@H](O)c2ncccc21)C12CC3CC(CC(C3)C1)C2 (stereo partly shown)

1. > 7.30
2. 5.52 to 6.00
3. > 7.30
